The reported measurements were obtained from the supplement of paper PMC6522484.

system: DLD1; assay: TCF/Wnt firefly luciferase reporter signal relative to plate median (fraction of plate median); higher = higher Wnt reporter signal; settings: 5 µM; treatment time 24 h; reporter: 7TFP
measuredMetric: TCF/Wnt firefly luciferase reporter signal
Keep it simple and answer with nothing but the number.

compound: CCC[C@H](N[C@@H](C)C(=O)N1[C@H](C(=O)O)C[C@@H]2CCCC[C@@H]21)C(=O)OCC
assaySystem: DLD1
measuredValue: 0.982

compound: C[C@@H]1CCC[C@H](C)N1NC(=O)c1ccc(Cl)c(S(N)(=O)=O)c1
assaySystem: DLD1
measuredValue: 0.993

compound: CCN(CC)C(=O)N1CCN(C)CC1
assaySystem: DLD1
measuredValue: 0.981

Quick one: TCF/Wnt firefly luciferase reporter signal for C=C1CCC(C2CC(=O)OC2=O)C(=O)CCC2C1CC2(C)C (stereo not given) ?
1.01

Please do the same for CCOC(=O)c1ccc(O)cc1 as well.
1.01

// same read-out, input: CO[C@@]1(NC(=O)CSCC#N)C(=O)N2C(C(=O)O)=C(CSc3nnnn3C)CS[C@@H]21
0.928

// next record C=C1C(=O)O[C@H]2C[C@@H]1C(OC(C)=O)C/C(C)=C/CC/C(C)=C/CC[C@@]2(C)O (stereo not given in full)
0.885

Also CC1(C)C[C@@H]2/C(CO)=C\C=C/[C@@](C)(O)CC[C@]21O , if possible.
1.11

Again, but for C=C[C@@]1(C)CC(=O)[C@]2(O)[C@@]3(C)[C@@H](O)CCC(C)(C)[C@@H]3[C@H](O)[C@H](OC(C)=O)[C@@]2(C)O1
1.23

For COc1c2c(cc3occ(-c4ccc5c(c4)OCO5)c(=O)c13)OC(C)(C)C=C2 then?
0.799

Okay, and CCCCC(=O)O[C@]1(C(=O)CO)[C@@H](C)C[C@H]2[C@@H]3CCC4=CC(=O)C=C[C@]4(C)[C@@]3(F)[C@@H](O)C[C@@]21C ?
0.868

Can you handle CCOC(=O)CCCCCCCCCCCCC1C=CCC1 (stereo not given) next?
0.869

Proceed to CCCNCC(O)COc1ccccc1C(=O)CCc1ccccc1 (stereo not given)
1.06

# repeat for C[C@]12CC[C@@H]3c4ccc(O)cc4CC[C@H]3[C@@H]1CC[C@@H]2O
1.07

Queued: CCOC(=O)c1ccc(N)cc1
0.94

Queued: Cc1ccc2c(c1)CC[C@H]1CC(=O)CC[C@]21C
0.941

Would you kindly repeat that for C[C@@H]1CC(=O)c2c(ccc3c2C(=O)c2cccc(O)c2C3=O)C1 [Ochromycinone (Isoform B, compound ID 7489)] ?
0.781

Another compound to check: O=[N+]([O-])c1cccc2cn[nH]c12
1.1

Do the same for NC1(C(=O)O)CCCC1 please
1.02

How about COC1=C(OC)C(=O)C(C/C=C(\C)CC/C=C(\C)CC/C=C(\C)CC/C=C(/C)CC/C=C(\C)CC/C=C(\C)CC/C=C(\C)CC/C=C(\C)CC/C=C(\C)CCC=C(C)C)=C(C)C1=O ?
0.98

What do you have for CCCCOc1cc(C(=O)NCCN(CC)CC)c2ccccc2n1 ?
0.831

###

TCF/Wnt firefly luciferase reporter signal values by entry
test system: DLD1; assay: TCF/Wnt firefly luciferase reporter signal relative to plate median (fraction of plate median); higher = higher Wnt reporter signal; conditions: 5 µM; treatment time 24 h; reporter: 7TFP
Kindly provide the number alone.

molecule: CC(=O)OCC(OC(C)=O)C(OC(C)=O)C(OC(C)=O)C(OC(C)=O)C(COC(C)=O)OC(C)=O (stereo unspecified)
assaySystem: DLD1
measuredValue: 0.987

molecule: O=C1C[C@@H](c2ccc(O)cc2)Oc2cc(O)cc(O)c21
assaySystem: DLD1
measuredValue: 1.01

Could you share what TCF/Wnt firefly luciferase reporter signal was measured for COc1cc2c(cc1OC)-c1c(oc3cc(O)cc(O)c3c1=O)CO2 , tested on DLD1?
1.22

How about CS(=O)(=O)CCCCN=C=S ?
0.83

Next: Oc1ccc(Cl)c2cccnc12
0.935

Next up: CCOC(=O)[C@H](CCc1ccccc1)N[C@H]1CCc2ccccc2N(CC(=O)O)C1=O
1.04
